Tested on: K562
Assay: CCK-8 proliferation assay, K562
Type: cell-based
Settings: Homo sapiens, CCK-8 kit assay, triplicates, 72 h, read-out: Anti-proliferation activity against cancer cells (IC50), K562
Protocol: The JAR, K562, HCT116, and MOLM13 cells were seeded in 96-well plates (3000 cells/well). After being cultured overnight, compounds were added together with the DMSO treatment (0.1%) as a control. After 72 h, CCK-8 solution (Vazyme, A311) was added, and the cells were incubated at 37 °C for 4 h. The absorbance was measured at 450 nm using a plate reader (TECAN Spark).
# IC50 binned as group A: < 30 µM; group B: ≥ 30 µM and < 40 µM; group C: ≥ 40 µM

As a guide, the following entries are already answered.
O=C(c1cnn(-c2ccccc2Cl)c1)c1ccccc1O	group B
COc1cccc(O)c1C(=O)c1cnn(-c2ccc(C(=O)O)cc2)c1	group C
O=C(O)c1cccc(-n2cc(C(=O)c3ccccc3O)cn2)c1	group C

Classify this compound: "CC(C)c1ccc(O)c(C(=O)c2cnn(-c3ccc(C(=O)O)cc3)c2)c1" group B

Classify this compound: "O=C(O)c1ccc(-n2cc(C(=O)c3cc([N+](=O)[O-])ccc3O)cn2)cc1" group C

Which IC50 band matches "O=C(O)c1ccc(-n2cc(C(=O)c3cc(F)cc(F)c3O)cn2)cc1" ? group C

Which of the defined bands does the recorded IC50 of "O=C(c1cnn(-c2ccc(F)cc2)c1)c1ccccc1O" sit within? group A

State the class of the compound shown: "O=C(c1cnn(-c2ccccc2C(=O)O)c1)c1ccccc1O" group C

Kindly state the category for this compound: "O=C(O)c1ccc(-n2cc(C(=O)c3cccc(Cl)c3O)cn2)cc1" group C

Which IC50 category applies to "CCc1ccc(O)c(C(=O)c2cnn(-c3ccc(C(=O)O)cc3)c2)c1" here? group C

Record "COc1ccccc1-n1cc(C(=O)c2ccccc2O)cn1" — which class? group C

Category lookup for the compound "Cc1ccc(C(=O)c2cnn(-c3ccc(C(=O)O)cc3)c2)c(O)c1" group C

Determine which band this compound sits in: "O=C(c1cnn(-c2ccc(C(F)(F)F)cc2)c1)c1ccccc1O" group C

All values here come from paper PMC11862924.
